Readout label: melting point

Would you please look over these solved cases?
N=C(NO)c1ccc(-c2ccc(-c3nc4cc(C(=N)NO)ccc4[nH]3)cc2)c(OCc2ccccc2)c1 [Compound 47]	250 to 253 °C (dec.)
CC(=O)O.N=C(N)c1ccc2[nH]c(-c3ccc(-c4ccc(C(=N)N)c(F)c4)cc3)nc2c1 [Compound 32]	210 to 212 °C (dec.)
CC(=O)O.N=C(N)c1ccc(-c2cccc(-c3nc4cc(C(=N)N)ccc4[nH]3)c2)nc1 [Compound 40]	198 to 200 °C (dec.)
COc1ccc(-c2ccc(C(=N)NO)cc2)cc1-c1nc2cc(C(=N)NO)ccc2[nH]1 [Compound 19]	> 340 °C
CC(=O)O.Cc1cc(C(=N)N)ccc1-c1cccc(-c2nc3cc(C(=N)N)ccc3[nH]2)c1 [Compound 28]	201 to 203 °C
COc1cc(-c2ccc(C(=N)NO)cc2)cc(-c2nc3cc(C(=N)NO)ccc3[nH]2)c1O [Compound 11]	319 to 321 °C
CC(=O)O.COc1cc(-c2ccc(C(=N)N)cc2)cc(-c2nc3cc(C(=N)N)ccc3[nH]2)c1O [Compound 12]	230 to 231 °C (dec.)
CC(=O)O.N=C(N)c1cccc(-c2ccc(O)c(-c3nc4cc(C(=N)N)ccc4[nH]3)c2)c1 [Compound 8]	208 to 209 °C (dec.)
N=C(NO)c1ccc(-c2cccc(-c3nc4cc(C(=N)NO)ccc4[nH]3)c2O)cc1 [Compound 15]	322 to 325 °C (dec.)
CC(=O)O.N=C(N)c1ccc(-c2cccc(-c3nc4cc(C(=N)N)ccc4[nH]3)c2O)cc1 [Compound 16]	228 to 229.5 °C (dec.)

Task: Look up melting point: CC(=O)O.Cc1cc(C(=N)N)ccc1-c1ccc(-c2nc3cc(C(=N)N)ccc3[nH]2)cc1 [Compound 52]
Result: 193 to 195 °C

Task: Query: melting point; subject: N=C(NO)c1ccc(-c2ccc(-c3nc4cc(C(=N)NO)ccc4[nH]3)cc2)nc1 [Compound 43]
Result: 305 to 308 °C (dec.)

Task: Returns the measured melting point for the input molecule. Input: N=C(NO)c1ccc(-c2cccc(-c3nc4cc(C(=N)NO)ccc4[nH]3)c2)cc1 [Compound 23]
Result: 317 to 319 °C

Task: Value lookup for melting point; key = N=C(NO)c1ccc(-c2ccc(-c3nc4cc(C(=N)NO)ccc4[nH]3)c(F)c2)cc1 [Compound 31]
Result: 281 to 283 °C (dec.)

Task: Please look up its melting point: CC(=O)O.N=C(N)c1ccc(-c2ccc(-c3nc4cc(C(=N)N)ccc4[nH]3)cc2)c(O)c1 [Compound 48]
Result: 220 to 222 °C

Task: Report melting point for Cc1cc(C(=N)NO)ccc1-c1ccc(-c2nc3cc(C(=N)NO)ccc3[nH]2)cc1 [Compound 51] please.
Result: 300 to 302 °C

###

Measured log10 of IC50 accompanies every entry in the list below.
Test system: Trypanosoma brucei rhodesiense (T.b.r.)
Assay: In vitro activity vs. T. b. rhodesiense
Assay type: cell-based
Conditions: Table 1, read-out: T.b.r. IC50
Counter-ions that a name gives are not always drawn.
Please be aware that the numbers have been log10-transformed from IC50 in µM.

Below are worked cases with known answers.
CC(=O)O.N=C(N)c1ccc(-c2cccc(-c3nc4cc(C(=N)N)ccc4[nH]3)c2O)cc1 [Compound 16, acetate salt]	-1.77
CC(=O)O.COc1cc(-c2ccc(C(=N)N)cc2)cc(-c2nc3cc(C(=N)N)ccc3[nH]2)c1O [Compound 12, acetate salt]	-1.51

Task: Item CC(=O)O.COc1ccc(-c2ccc(C(=N)N)cn2)cc1-c1nc2cc(C(=N)N)ccc2[nH]1 [Compound 36, acetate salt] has what recorded log10 of IC50?
Result: -1.85

Task: Looking for the measured log10 of IC50 of CC(=O)O.Cc1cc(C(=N)N)ccc1-c1cccc(-c2nc3cc(C(=N)N)ccc3[nH]2)c1 [Compound 28, acetate salt] , can you help?
Result: -1.64

Task: What measured log10 of IC50 goes with N=C(N)c1ccc(-c2ccc(O)c(-c3nc4cc(C(=N)N)ccc4[nH]3)c2)cc1 [Compound 4, acetate salt] ?
Result: -1.57

Task: Look up log10 of IC50 for this compound: CC(=O)O.COc1ccc(-c2ccc(C(=N)N)cc2)cc1-c1nc2cc(C(=N)N)ccc2[nH]1 [Compound 20, acetate salt]
Result: -1.28

Task: Give its log10 of IC50 value. Item: N=C(N)c1ccc(-c2cccc(-c3nc4cc(C(=N)N)ccc4[nH]3)c2)cc1 [Compound 24, acetate salt]
Result: -2.36

Task: Need log10 of IC50 of CC(=O)O.N=C(N)c1ccc(-c2cccc(-c3nc4cc(C(=N)N)ccc4[nH]3)c2)nc1 [Compound 40, acetate salt] , thanks.
Result: -1.82

Task: What measured log10 of IC50 goes with CC(=O)O.N=C(N)c1cccc(-c2ccc(O)c(-c3nc4cc(C(=N)N)ccc4[nH]3)c2)c1 [Compound 8, acetate salt] ?
Result: -0.67

###

Readout label: melting point

Some solved entries appear below for comparison.
N=C(NO)c1cccc(-c2ccc(O)c(-c3nc4cc(C(=N)NO)ccc4[nH]3)c2)c1	352 to 355 °C
CC(=O)O.COc1ccc(-c2ccc(C(=N)N)cc2)cc1-c1nc2cc(C(=N)N)ccc2[nH]1	220 to 221 °C
N=C(NO)c1ccc(-c2cccc(-c3nc4cc(C(=N)NO)ccc4[nH]3)c2)nc1	295 to 297 °C (dec.)
CC(=O)O.COc1ccc(-c2ccc(C(=N)N)cn2)cc1-c1nc2cc(C(=N)N)ccc2[nH]1	231 to 232 °C (dec.)
CC(=O)O.N=C(N)c1ccc(-c2ccc(-c3nc4cc(C(=N)N)ccc4[nH]3)cc2)nc1	240 to 241 °C

With those in mind, consider the next compound.
Task: Which measured melting point value corresponds to `Cc1cc(C(=N)NO)ccc1-c1cccc(-c2nc3cc(C(=N)NO)ccc3[nH]2)c1` ?
Result: 295 to 297 °C (dec.)

###

Test system: Trypanosoma brucei rhodesiense (T.b.r.)
Assay: In vitro activity vs. T. b. rhodesiense
Format: cell-based
Conditions: Table 2, read-out: T.b.r. IC50
Readout label: IC50 (nM)
Your answer should be a plain number; it is taken to be in nM.

Answered examples (4):
N=C(N)c1ccc(-c2ccc(-c3nc4ccc(C(=N)N)cc4[nH]3)cc2)cc1	7.7
CC(=O)O.N=C(N)c1ccc(-c2ccc(-c3nc4cc(C(=N)N)ccc4[nH]3)cc2)c(O)c1 [Compound 48, acetate salt]	27
CC(=O)O.N=C(N)c1ccc(-c2ccc(-c3nc4cc(C(=N)N)ccc4[nH]3)cc2)nc1 [Compound 44, acetate salt]	41
CC(=O)O.N=C(N)c1ccc2[nH]c(-c3ccc(-c4ccc(C(=N)N)c(F)c4)cc3)nc2c1 [Compound 32, acetate salt]	35

Consider the additional compound presented here.
Task: What measured IC50 goes with CC(=O)O.Cc1cc(C(=N)N)ccc1-c1ccc(-c2nc3cc(C(=N)N)ccc3[nH]2)cc1 [Compound 52, acetate salt] ?
Result: 6
